These measurements were taken from patent US20170260266A1.

Target: T1, full length (mature) human TSLP, recombinant (human, UniProt Q969D9 29-159, biotinylated in the SPR assay on the SA chip)
T1 construct: also called hTSLP; Human TSLP from E. coli
Assay: ELISA RBA, geometric mean
pIC50: −log10 of the molar value.
parameter: pIC50

# binder, quantitative_result
measured = [
    ("DOM30h-440-55 (other) VL: DIQMTQSPSSLSASVGDRVTITCRASRPIRNWLDWYQQKPGKAPKLLIWGASHLQSGVPSRFSGSGSGTDFTLTISSLQPEDFATYYCVQIGEDPVTFGQGTKVEIKR", 9.06),
]

A = DOM30h-440-64 (other) VL: DIQMTQSPSSLSASVGDRVTITCRASRPIRNWLDWYQQKPGKAPKLLIWGASHLQSGVPSRFSGSGSGTDFTLTISSLQPEDFATYYCLQIGEDPVTFGQGTKVEIKR
B = DOM30h-440-57 (other) VL: DIQMTQSPSSLSASVGDRVTITCRASRPIRNWLDWYQQKPGKAPELLIWGASHLQSGVPSRFSGSGSGTDFTLTISSLQPEDFATYYCMQIGDDPVTFGQGTKVEIKR
C = DOM30h-440-56 (other) VL: DIQMTQSPSSLSASVGDRVTITCRASRPIRNWLDWYQQKPGKAPKLLIWGASHLQSGVPSRFSGSGSGTDFTLTVSSLQPEDFATYYCMQIGEDPVTFGQGTKVEIKR
D = DOM30h-440-53 (other) VL: DIQMTQSPSSLSASVGDRVTITCRASRPIRNWLDWYQQKPGKAPKLLIWGASHLQSGVPSRFSGSGSGTDFTLTISSLQPEDFATYYCLQVGEDPVTFGQGTKVEIKR
Exercise: Put the entries in order of pIC50, starting with the largest number. Response field: labels, in requested order.
Key: B, C, A, D

1 = DOM30h-440-58 (other) VL: DIQMTQSPSSLSASVGDRVTITCRASRPIRNWLDWYQQKPGKAPKLLIWGASHLQSGVPSRFSGSGSGTDFTLTISSLQPEDFATYYCLQIADDPVTFGQGTKVEIKR
2 = DOM30h-440-60 (other) VL: DIQMTQSPSSLSASVGDRVTITCRASRPIRNWLDWYQQKPGKAPKLLIWGASHLQSGVPSRFSGSGSGTDFTLTISSLQPEDFATYYCIQFGEDPVTFGQGTKVEIKR
Exercise: Among 1 and 2 , which shows a numerically higher pIC50 result? Which one? Tell me its label.
Key: 2

A = DOM30h-440-54 (other) VL: DIQMTQSPSSLSASVGDRVTITCRASRPIRNWLDWYQQKPGKAPKLLIWGASHLQSGVPSRFSGSGSGTDFTLTISSLQPEDFATYYCWQLAFDPTTFGQGTKVEIKR
B = DOM30h-440-65 (other) VL: DIQMTQSPSSLSASVGDRVTITCRASRPIRNWLDWYQQKPGKAPKLLIWGASHLQSGVPSRFSGSGSGTDFTLTISSLQPEDFATYYCMQIGEDPVTFGQGTKVEIKR
Exercise: Among A and B , which shows a numerically higher pIC50 result? Which one? Tell me its label.
Key: B
(B: 9.16, A: 8.67)
